Test: Dissociation constant, pKa of the compound
Type: physicochemical
Hi there, I'd appreciate the recorded pKa for every entry that follows.
One number for each entry.

INSERT INTO assay_data (structure_as_smiles, recorded_endpoint, result_value) VALUES
  ('Cc1cc(C(N)=O)c(-c2cccc(OC(=O)N3CCN(CCCc4ccccc4)CC3)c2)o1', 'pKa', 8.5);

Request: Would you mind telling me what pKa value was observed for Cc1cc(C(N)=O)c(-c2cccc(OC(=O)N3CCC(NCCc4ccccc4)CC3)c2)o1 ?
Response: 7.6

----------
Assay: Neurotoxicity against Wistar rat Hippocampus assessed as cell survival at 0.3 to 100 nM measured for 96 hrs by densitometric analysis
Assay type: toxicity, tissue-based
Conditions: 0.1 µM, dose 0.3-100 nM
Recorded endpoint: Activity

INSERT INTO measurements (structure_as_smiles, result_value) VALUES
  ('Cc1cc(C(N)=O)c(-c2cccc(OC(=O)N3CCN(CCCc4ccccc4)CC3)c2)o1', 'Non-Toxic'),
  ('O=C(NCCCCCCc1ccccc1)Oc1cccc(-c2nn[nH]n2)c1', 'Non-Toxic'),
  ('NC(=O)c1ccn(-c2cccc(OC(=O)N3CCN(CCCc4ccccc4)CC3)c2)c1', 'Non-Toxic'),
  ('Cc1cc(C(N)=O)c(-c2cccc(OC(=O)N3CCC(NCCc4ccccc4)CC3)c2)o1', 'Non-Toxic');

----------
Test: Cytotoxicity against mouse NIH3T3 cells assessed as inhibition of cell growth measured for 24 hrs by neutral red uptake assay
Type: toxicity, cell-based
// returns F unless IC50 at 24 h is strictly below 40 µM, in which case T

The examples below pair each entry with its known result.
INSERT INTO measurements (structure_as_smiles, class_assignment) VALUES
  ('NC(=O)c1cn(-c2cccc(OC(=O)NCCCCCCc3ccccc3)c2)nn1', 'T'),
  ('Cc1cc(C(N)=O)c(-c2cccc(OC(=O)N3CCC(NCCc4ccccc4)CC3)c2)o1', 'F'),
  ('Cc1cc(C(N)=O)c(-c2cccc(OC(=O)N3CCN(CCCc4ccccc4)CC3)c2)o1', 'T'),
  ('NC(=O)c1ccn(-c2cccc(OC(=O)N3CCN(CCCc4ccccc4)CC3)c2)c1', 'F');

Request: Consider Cc1cc(C(N)=O)c(-c2cccc(OC(=O)NCCCCCCc3ccccc3)c2)o1 . Does its IC50 at 24 h lie strictly below 40 µM?
Response: T

----------
Hi there, I'd appreciate the recorded IC50 for every entry that follows.
Target: Monoglyceride lipase (Homo sapiens, UniProt Q99685)
Sequence (Q99685 whole entry): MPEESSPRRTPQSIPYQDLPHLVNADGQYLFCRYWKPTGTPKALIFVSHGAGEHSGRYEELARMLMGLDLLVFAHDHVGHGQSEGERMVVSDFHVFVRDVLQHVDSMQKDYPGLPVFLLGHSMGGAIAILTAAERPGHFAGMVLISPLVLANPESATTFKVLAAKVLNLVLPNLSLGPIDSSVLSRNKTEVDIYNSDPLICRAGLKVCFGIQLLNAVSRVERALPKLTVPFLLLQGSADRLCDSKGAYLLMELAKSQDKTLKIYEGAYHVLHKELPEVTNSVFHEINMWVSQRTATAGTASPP
Test: Inhibition of human recombinant MAGL using 7-hydroxycoumarinyl arachidonate as substrate preincubated for 30 mins followed by substrate addition and measured after 30 mins by multimode plate reader analysis

INSERT INTO measurements (structure_as_smiles, tested_target, result_value) VALUES
  ('O=C(NCCCCCCc1ccccc1)Oc1cccc(-c2nn[nH]n2)c1', 'Monoglyceride lipase (Homo sapiens, UniProt Q99685)', '8.4 µM'),
  ('NC(=O)c1cn(-c2cccc(OC(=O)NCCCCCCc3ccccc3)c2)nn1', 'Monoglyceride lipase (Homo sapiens, UniProt Q99685)', '0.479 µM'),
  ('Cc1cc(C(N)=O)c(-c2cccc(OC(=O)N3CCN(CCCc4ccccc4)CC3)c2)o1', 'Monoglyceride lipase (Homo sapiens, UniProt Q99685)', '5.06 µM'),
  ('Cc1cc(C(N)=O)c(-c2cccc(OC(=O)N3CCC(NCCc4ccccc4)CC3)c2)o1', 'Monoglyceride lipase (Homo sapiens, UniProt Q99685)', '> 10 µM'),
  ('Cc1cc(C(N)=O)c(-c2cccc(OC(=O)N3CCN(CCCc4ccccc4)CC3)c2)s1', 'Monoglyceride lipase (Homo sapiens, UniProt Q99685)', '> 10 µM');

Could you tell me IC50 for each of these compounds? They are listed below.
1. Cc1cc(C(=O)O)c(-c2cccc(OC(=O)NCCCCCCc3ccccc3)c2)o1
2. Cc1cc(C(N)=O)c(-c2cccc(OC(=O)NC3CCN(CCCc4ccccc4)CC3)c2)o1
3. Cc1cc(C(=O)O)c(-c2cccc(OC(=O)N3CCN(CCCc4ccccc4)CC3)c2)o1
4. Cc1cc(C(N)=O)c(-c2cccc(OC(=O)N(C)C3CCN(CCc4ccccc4)CC3)c2)s1
5. Cc1cc(C(N)=O)c(-c2cccc(OC(=O)N(C)C3CCN(CCc4ccccc4)CC3)c2)o1
6. Cc1cc(C(N)=O)c(-c2cccc(OC(=O)N3CCC(CCCc4ccccc4)CC3)c2)o1

Response:
["2.44 µM", "> 10 µM", "> 10 µM", "> 10 µM", "> 10 µM", "4.12 µM"]
